Below: molecules with pIC50 recorded for UniProtKB Q92793 in separate published works.
Sequence (Q92793 whole entry): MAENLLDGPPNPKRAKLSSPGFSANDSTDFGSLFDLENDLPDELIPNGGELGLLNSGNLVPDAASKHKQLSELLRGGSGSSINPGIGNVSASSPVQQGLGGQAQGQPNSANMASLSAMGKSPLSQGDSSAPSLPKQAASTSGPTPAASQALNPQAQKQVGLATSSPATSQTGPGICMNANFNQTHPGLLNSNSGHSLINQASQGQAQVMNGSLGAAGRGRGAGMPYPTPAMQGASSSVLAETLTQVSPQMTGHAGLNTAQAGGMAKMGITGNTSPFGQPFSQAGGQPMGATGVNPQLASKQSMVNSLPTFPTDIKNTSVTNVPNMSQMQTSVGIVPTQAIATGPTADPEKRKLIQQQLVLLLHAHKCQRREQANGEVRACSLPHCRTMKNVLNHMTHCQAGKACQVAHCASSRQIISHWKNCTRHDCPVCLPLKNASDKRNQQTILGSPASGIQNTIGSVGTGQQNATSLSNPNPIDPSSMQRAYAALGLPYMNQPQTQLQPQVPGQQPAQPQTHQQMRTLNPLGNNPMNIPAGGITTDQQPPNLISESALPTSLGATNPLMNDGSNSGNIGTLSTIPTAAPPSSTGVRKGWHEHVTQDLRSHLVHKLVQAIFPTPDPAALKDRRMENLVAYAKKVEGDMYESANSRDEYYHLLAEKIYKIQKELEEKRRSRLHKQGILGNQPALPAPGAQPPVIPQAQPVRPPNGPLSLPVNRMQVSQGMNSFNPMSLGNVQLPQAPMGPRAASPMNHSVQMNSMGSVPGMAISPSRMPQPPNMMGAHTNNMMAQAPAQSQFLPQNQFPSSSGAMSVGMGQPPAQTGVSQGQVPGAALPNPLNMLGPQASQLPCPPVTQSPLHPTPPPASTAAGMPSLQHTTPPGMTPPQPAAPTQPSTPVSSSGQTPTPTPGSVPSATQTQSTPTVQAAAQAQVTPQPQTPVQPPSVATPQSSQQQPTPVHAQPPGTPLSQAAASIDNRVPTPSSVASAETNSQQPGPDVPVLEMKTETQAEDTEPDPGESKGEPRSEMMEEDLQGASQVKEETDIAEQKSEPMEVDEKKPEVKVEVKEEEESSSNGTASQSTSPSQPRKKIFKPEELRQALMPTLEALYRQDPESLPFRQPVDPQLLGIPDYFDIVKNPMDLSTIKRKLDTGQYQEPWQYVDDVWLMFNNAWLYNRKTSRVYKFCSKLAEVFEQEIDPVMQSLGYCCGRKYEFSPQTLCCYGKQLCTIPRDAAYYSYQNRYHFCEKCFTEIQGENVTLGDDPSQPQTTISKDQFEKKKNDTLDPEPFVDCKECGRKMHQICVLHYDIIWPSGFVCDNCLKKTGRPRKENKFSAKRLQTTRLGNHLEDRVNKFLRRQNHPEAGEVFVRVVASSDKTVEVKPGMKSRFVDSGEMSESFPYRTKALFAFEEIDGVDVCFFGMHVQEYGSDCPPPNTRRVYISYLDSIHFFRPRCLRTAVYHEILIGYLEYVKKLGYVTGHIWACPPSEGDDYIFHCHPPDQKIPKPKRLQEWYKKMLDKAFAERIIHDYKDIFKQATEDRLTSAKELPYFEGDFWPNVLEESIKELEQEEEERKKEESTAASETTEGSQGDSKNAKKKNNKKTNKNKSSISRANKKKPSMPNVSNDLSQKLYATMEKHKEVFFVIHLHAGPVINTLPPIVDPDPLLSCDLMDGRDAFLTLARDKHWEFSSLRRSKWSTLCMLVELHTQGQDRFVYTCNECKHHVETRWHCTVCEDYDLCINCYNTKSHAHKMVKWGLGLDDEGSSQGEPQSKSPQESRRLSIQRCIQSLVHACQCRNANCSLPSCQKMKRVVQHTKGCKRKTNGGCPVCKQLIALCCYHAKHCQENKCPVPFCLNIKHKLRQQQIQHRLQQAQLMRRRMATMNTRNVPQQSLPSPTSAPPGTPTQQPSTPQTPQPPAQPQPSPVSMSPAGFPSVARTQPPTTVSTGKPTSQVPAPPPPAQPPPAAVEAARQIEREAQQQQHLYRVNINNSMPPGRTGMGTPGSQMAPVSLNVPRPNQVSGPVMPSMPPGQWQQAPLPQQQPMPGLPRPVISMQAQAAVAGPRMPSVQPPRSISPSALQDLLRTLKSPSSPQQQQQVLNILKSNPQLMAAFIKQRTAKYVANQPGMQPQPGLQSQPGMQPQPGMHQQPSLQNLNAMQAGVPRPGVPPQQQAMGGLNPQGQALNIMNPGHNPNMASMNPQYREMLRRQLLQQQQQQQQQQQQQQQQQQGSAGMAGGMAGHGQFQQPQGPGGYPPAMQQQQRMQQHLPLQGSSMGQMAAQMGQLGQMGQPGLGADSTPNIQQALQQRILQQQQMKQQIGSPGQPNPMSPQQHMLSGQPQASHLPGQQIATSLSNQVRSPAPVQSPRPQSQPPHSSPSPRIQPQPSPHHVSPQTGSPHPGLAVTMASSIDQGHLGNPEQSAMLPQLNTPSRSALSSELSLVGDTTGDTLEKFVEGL
The quantity pIC50 is defined as the negative base-10 logarithm of the molar concentration.

Check out these entries, answers already filled in.
CC(=O)n1cc(C(=O)Nc2cc(C(=O)O)cc(C3CCCC3)c2)c2ccccc21 : 5.52
CC(=O)n1cc(C(=O)Nc2cccc(C(=O)O)c2)c2ccccc21 : 5.77
COc1ccc(CCc2nc3cc(-c4c(C)noc4C)ccn3c2NCc2ccc(Cl)cc2)cc1 : 5.80

[ask] Would you mind telling me what pIC50 value was observed for CNC(=O)Nc1ccc2c(c1)CC[C@@]21OC(=O)N(CC(=O)N2Cc3sc(C)c(C)c3OC[C@H]2C(F)(F)F)C1=O ?
[reply] 6.17

[ask] Entry to check: COc1cccc(CCc2nc3cc(-c4c(C)noc4C)ccc3n2CCN2CCOCC2)c1
[reply] 6.51

[ask] Now the molecule Cc1noc(C)c1-c1ccc2c(c1)nc(CCc1cccnc1)n2CCN1CCOCC1
[reply] 6.11

[ask] Request: COC(=O)C1CCN(C(=O)Cn2cc(C(C)=O)c3ccccc32)CC1
[reply] 4.70

[ask] Also, CCC(=O)N1CCOc2c(cc(-c3ccc(OC)c(OC)c3)cc2OC[C@H]2CCCN(C)C2)C1 please.
[reply] 6.77

[ask] Also, O=C1[C@H](Cc2ccc(O)cc2)N2C(=O)CCN(C(=O)NCc3ccccc3)[C@H]2CN1Cc1cccc2ccccc12 please.
[reply] 5.52

[ask] Consider next the molecule O=C1CNCC(C(=O)NCCn2nc(-c3ccccc3)ccc2=O)N1 (stereo not given) in the same way.
[reply] 4.26

[ask] Another molecule to look at: CC(=O)n1cc(C(=O)Nc2cc(C(=O)O)ccc2NCC2CC2)c2ccccc21
[reply] 4.67

[ask] How about this molecule: COC(=O)c1cccc(NC(=O)c2cn(C(C)=O)c3ccccc23)c1
[reply] 5.47
